# Tested on: HT-1197 cells
# Test: Cell-based assay: anti-proliferative activity, Cell Counting Kit-8, 72 hours (HT-1197, negative control without MELK expression)
# Condition Label: Homo sapiens, HT1197, 72 h, HT1197 cells (negative control), 72 hours
Where a name gives a salt, the structure may show the parent alone.
Metric Name: IC50 (µM)
Could you give me the number in µM? Just the number is fine.

- Compound: "NC1CCN(c2ncc(Nc3c(C(=O)C4CC4)cnc4ccc(-c5cc(F)c(O)c(Cl)c5)cc34)cn2)C1 (stereo not shown)"
  IC50, µM: 0.37
- Compound: "CN(C)Cc1ccc(Nc2c(C(=O)C3CC3)cnc3c(F)cc(-c4cc(F)c(O)c(Cl)c4)cc23)cc1"
  IC50, µM: 3.3
- Compound: "CC(=O)c1cnc2ccc(-c3cc(Cl)c(O)c(Cl)c3)cc2c1N[C@H]1CC[C@H](C(=O)N(C)C)CC1 [Example 865, hydrochloride]"
  IC50, µM: 3.9
- Compound: "COc1cc(-c2ccc3ncc(C(=O)C4CC4)c(Nc4ccc(N5CCC(N)CC5)nc4)c3c2)cc(Cl)c1O"
  IC50, µM: 2.7
- Compound: "CC(=O)c1cnc2ccc(-c3cc(Cl)c(O)c(Cl)c3)cc2c1Nc1cc(CCN2CCCC2)cnc1C"
  IC50, µM: 71
- Compound: "CCN(CC)CCO[C@H]1CC[C@H](Nc2c(C(C)=O)cnc3ccc(-c4cc(F)c(O)c(Cl)c4)cc23)CC1 [Example 869, hydrochloride]"
  IC50, µM: 0.7

Req: Under HT-1197 cells: IC50 value of "CC(=O)c1cnc2ccc(-c3cc(Cl)c(O)c(Cl)c3)cc2c1N[C@H]1CC[C@H](NC(=O)[C@@H]2CCCN2)CC1" ?
Resp: 6.5

###

# Test system: T47D cells
# Test: Cell-based assay: anti-proliferative activity, Cell Counting Kit-8, 72 hours (T47D)
# Condition Label: Homo sapiens, T47D, 72 h
With a cut-off of 1 µM, any IC50 strictly below it is called 1 (yes); any IC50 meeting it or above is called 0 (no).

Req: Field: below-cutoff. Rule: recorded IC50 strictly less than 1 µM. Subject: "CN(C)CC1CCN(c2c(C(=O)C3CC3)cnc3ccc(-c4ccc5c(c4)CC(=O)N5)cc23)CC1"
Resp: 0 (no)

###

# System: T47D cells
# Test: Cell-based assay: anti-proliferative activity, Cell Counting Kit-8, 72 hours (T47D)
# Condition Label: Homo sapiens, T47D, 72 h
Structures can show the parent of a compound that is named as a salt.
Metric Name: log10(IC50) (log10 of the value in µM)
Recorded IC50 (log10, µM)

- Compound: "CCC(=O)c1cnc2ccc(-c3cc(Cl)c(O)c(Cl)c3)cc2c1Nc1ccc(N2CCC(N)C2)nc1 (stereo not drawn)"
  log10(IC50): -1.51
- Compound: "Nc1ccc(Nc2c(C(=O)C3CC3)cnc3ccc(-c4cc(Cl)c(O)c(Cl)c4)cc23)cn1"
  log10(IC50): -0.32
- Compound: "O=C(c1cnc2ccc(-c3cc(Cl)c(O)c(Cl)c3)cc2c1NC1CCNCC1)C1CC1"
  log10(IC50): -0.25
- Compound: "COc1cc(-c2ccc3ncc(C(=O)C4CC4)c(NC4CCN(C5CCNC5)CC4)c3c2)cc(Cl)c1O (stereo not drawn)"
  log10(IC50): -0.74
- Compound: "CC(=O)c1cnc2cc(F)c(-c3cc(Cl)c(O)c(Cl)c3)cc2c1N[C@H]1CC[C@H](CN2CCCC2)CC1 [Example 923, hydrochloride]"
  log10(IC50): -0.20
- Compound: "CC(=O)c1cnc2ccc(-c3cnc(C#N)nc3)cc2c1Nc1ccc(CN(C)C)cc1"
  log10(IC50): -0.62
- Compound: "CCCC(=O)c1cnc2ccc(-c3cc(F)c(O)c(Cl)c3)cc2c1N[C@H]1CC[C@H](N)CC1"
  log10(IC50): -1.34
- Compound: "CC(=O)c1cnc2ccc(-c3cc(F)c(O)c(Cl)c3)cc2c1NC1CCCN(CCN(C)C)C1 (stereo not drawn)"
  log10(IC50): 0.20

Req: Given "COc1cc(-c2cc(F)c3ncc(C(=O)C4CC4)c(Nc4ccc(CN(C)C)cc4)c3c2)cc(Cl)c1O" , state its recorded log10(IC50).
Resp: 0.30

Req: Given "O=C(c1cnc2ccc(-c3ccc(O)c(Cl)c3)cc2c1N1CCN(CCN2CCCC2)CC1)C1CC1" , state its recorded log10(IC50).
Resp: 0.65

Req: Given "CN1CCN(CCc2cccc(Nc3c(C(=O)C4CC4)cnc4ccc(-c5cc(Cl)c(O)c(Cl)c5)cc34)c2)CC1" , state its recorded log10(IC50).
Resp: -0.15

Req: Given "CCCC(=O)c1cnc2ccc(-c3cc(Cl)c(O)c(Cl)c3)cc2c1Nc1ccc(N2CCNCC2)nc1" , state its recorded log10(IC50).
Resp: 0.18

Req: Given "NCc1ccc(Nc2c(C(=O)C3CC3)cnc3ccc(-c4cc(F)c(O)c(Cl)c4)cc23)cc1" , state its recorded log10(IC50).
Resp: -1.08

Req: Given "COc1cc(-c2ccc3ncc(C(=O)C4CC4)c(Nc4ccc(CN5CCCC5)nc4)c3c2)cc(Cl)c1O" , state its recorded log10(IC50).
Resp: -0.22

Req: Given "COc1cc(-c2ccc3ncc(C(=O)C4CC4)c(Nc4ccc(CN)cc4)c3c2)cc(Cl)c1O" , state its recorded log10(IC50).
Resp: -0.82

###

Listed here are molecules together with their documented IC50.
# Test Target: MELK (Homo sapiens)
# Sequence (Q14680 whole entry, looked up): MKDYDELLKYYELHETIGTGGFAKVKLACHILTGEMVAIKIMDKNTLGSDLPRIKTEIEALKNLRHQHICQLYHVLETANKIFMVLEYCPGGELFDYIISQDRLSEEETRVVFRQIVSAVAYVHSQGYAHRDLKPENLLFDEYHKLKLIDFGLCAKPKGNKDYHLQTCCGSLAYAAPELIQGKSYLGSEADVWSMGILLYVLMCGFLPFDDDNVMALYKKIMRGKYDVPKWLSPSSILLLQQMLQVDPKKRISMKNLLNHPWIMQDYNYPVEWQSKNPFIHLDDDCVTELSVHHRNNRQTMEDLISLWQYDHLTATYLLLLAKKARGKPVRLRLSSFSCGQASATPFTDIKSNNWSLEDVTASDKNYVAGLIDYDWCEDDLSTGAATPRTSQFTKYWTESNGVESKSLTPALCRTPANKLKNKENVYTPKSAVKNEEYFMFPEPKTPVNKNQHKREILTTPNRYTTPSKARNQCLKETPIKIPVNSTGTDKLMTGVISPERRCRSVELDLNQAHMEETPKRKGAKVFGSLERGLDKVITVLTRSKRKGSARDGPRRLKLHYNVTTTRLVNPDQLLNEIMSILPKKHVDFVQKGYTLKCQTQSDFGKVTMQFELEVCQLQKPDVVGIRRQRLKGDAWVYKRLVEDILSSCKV
# Test: Kinase assay: MELK activity, phosphorylation of FITC-labeled histone H3 peptide measured by IMAP fluorescence polarization
# Type: biochemical
# Condition Label: 50 micro-M ATP, FITC-labeled histone H3 peptide substrate, IMAP fluorescence polarization; dihydrochloride; read-out: IC50 (μM) (kinase assay)
Where a name gives a salt, the structure may show the parent alone.
Could you give me the number in µM? Just the number is fine.

- Molecule: "N[C@H]1CC[C@H](Nc2c(C(=O)C3CC3)cnc3ccc(-c4cc(Cl)c(O)c(Cl)c4)cc23)CC1 [Example 157(b), dihydrochloride]"
  IC50, µM: 0.003

Req: Under MELK (Homo sapiens): IC50 value of CC(C)C(=O)c1cnc2ccc(-c3cc(Cl)c(O)c(Cl)c3)cc2c1N[C@H]1CC[C@H](N)CC1 [Example 225(b), dihydrochloride] ?
Resp: 0.0028

###

# Test system: 22Rv1 cells
# Test: Cell-based assay: anti-proliferative activity, Cell Counting Kit-8, 72 hours (22Rv1)
# Condition Label: Homo sapiens
Counter-ions that a name gives are not always drawn.
Listed here are compounds together with their documented IC50.
Could you give me the number in µM? Just the number is fine.

Past entries and their recorded results:
- Compound: "CC(=O)c1cnc2ccc(-c3ccc4nc[nH]c4c3)cc2c1Nc1ccc(OCCN(C)C)nc1 [Example 902, hydrochloride]"
  Test Target: "22Rv1 cells"
  IC50 / µM: 3.1
- Compound: "O=C(c1cnc2ccc(-c3cc(Cl)c(O)c(Cl)c3)cc2c1Nc1cccc(CCN2CCCC2)c1)C1CCCC1 [Example 927, hydrochloride]"
  Test Target: "22Rv1 cells"
  IC50 / µM: 0.78
- Compound: "CCN(CC)CCO[C@H]1CC[C@H](Nc2c(C(C)=O)cnc3ccc(-c4cc(Cl)c(O)c(Cl)c4)cc23)CC1 [Example 868, hydrochloride]"
  Test Target: "22Rv1 cells"
  IC50 / µM: 0.3
- Compound: "CC(N)C(=O)N[C@H]1CC[C@H](Nc2c(C(=O)C(C)(C)C)cnc3ccc(-c4cc(F)c(O)c(Cl)c4)cc23)CC1 (stereo partly drawn) [Example 932, hydrochloride]"
  Test Target: "22Rv1 cells"
  IC50 / µM: 1.6
- Compound: "CN(C)C1CCN(c2ccc(Nc3c(S(C)(=O)=O)cnc4ccc(-c5cc(F)c(O)c(Cl)c5)cc34)cn2)C1 (stereo not drawn) [Example 889, hydrochloride]"
  Test Target: "22Rv1 cells"
  IC50 / µM: 1.8

Req: Given CC(=O)c1cnc2ccc(-c3cc(Cl)c(O)c(Cl)c3)cc2c1N[C@H]1CC[C@H](NC(=O)[C@@H](N)C(C)(C)C)CC1 [Example 922, hydrochloride] , state its recorded IC50.
Resp: 0.65

Req: Given "CC(=O)c1cnc2ccc(-c3cc(Cl)c(O)c(Cl)c3)cc2c1Nc1cc(CCN2CCCC2)cnc1C" , state its recorded IC50.
Resp: 11

Req: Given CC(=O)c1cnc2ccc(-c3cc(F)c(O)c(Cl)c3)cc2c1N[C@H]1CC[C@H](NC(=O)[C@H](C)N)CC1 (stereo in doubt) , state its recorded IC50.
Resp: 0.096

Req: Given CC(=O)c1cnc2ccc(-c3cc(Cl)c(O)c(Cl)c3)cc2c1N[C@H]1CC[C@H](C(=O)N2CCN(C)CC2)CC1 [Example 898, hydrochloride] , state its recorded IC50.
Resp: 0.78

Req: Given "O=C(c1cnc2ccc(-c3cc(F)c(O)c(Cl)c3)cc2c1Nc1cncc(CCN2CCCC2)c1)C1CC1" , state its recorded IC50.
Resp: 3.1

Req: Given [2H]C([2H])([2H])N(C[C@H]1CC[C@H](Nc2c(C(C)=O)cnc3ccc(-c4cc(Cl)c(O)c(Cl)c4)cc23)CC1)C([2H])([2H])[2H] [Example 864, dihydrochloride] , state its recorded IC50.
Resp: 0.081

Req: Given CN(C)CCOc1ccc(Nc2c(S(C)(=O)=O)cnc3ccc(-c4cc(F)c(O)c(Cl)c4)cc23)cn1 [Example 885, hydrochloride] , state its recorded IC50.
Resp: 2.5

Values compiled from patent US9120749B2.
